Where do the numbers come from? From PubChem BioAssay (NCI).

system: SR leukemia; test: NCI-60 one-dose screen, 48 h; settings: 10 µM unless noted
This is part of a sample that, as a whole, favours compounds with a hit. Of some 83,000 tested, about 20% had one in any assay. Calls of active or inactive are those of the source. How the source made its calls: active means growth percent below 10; inactive means the rest.
Permitted responses: TRUE for active, FALSE for inactive

Record excerpt, results attached:
CCOC(=O)C1=C(C)NC(SCc2cc(=O)oc3ccc(F)cc23)=N[C@@H]1c1cccc2ccccc12 :: FALSE
NC(=NCCCOc1ccc(F)cc1)Nc1ccc(I)cc1 :: FALSE
COc1ccc2[nH]c(=O)c(CN3CCN(c4nccc(-c5ccc(Cl)cc5)n4)CC3)cc2c1 :: FALSE
CC(C)N1C(=O)S/C(=C2/SC(=O)N(C(C)C)C2=O)C1=O :: FALSE
COc1cccc2c1c1nc3cc(C)c(C)cc3nc1n2CCN(C)C :: TRUE

// param item: COc1cc2c(=O)n(CCCN(C)C)c3c4cc5c(cc4ccc3c2cc1OC)OCO5 ; yields the recorded call
TRUE

How was CC(C)(C)c1ccc(NS(=O)(=O)c2ccc3nc(NC(=O)c4cnccn4)[nH]c3c2)cc1 classified in this test?
TRUE

Assay result, entry CC1(C)CC[C@]2(C(=O)O)CC[C@]3(C)C(=CC[C@@H]4[C@@]5(C)Cc6c([nH]c7ccccc67)C(C)(C)[C@@H]5CC[C@]43C)[C@@H]2C1 — outcome?
FALSE

Which outcome was assigned to CC(=O)[C@@H]1CC[C@]2(CO)CC[C@]3(C)[C@H](CC[C@@H]4[C@@]5(C)CCCNC(C)(C)[C@@H]5CC[C@]43C)[C@@H]12 in this test?
FALSE

###

Quick reference for growth among some compounds
tested on: SNB-19 CNS; assay: NCI-60 one-dose screen, 48 h (100 = growth as untreated, 0 = no growth, -100 = all killed); details: 10 µM unless noted
This is part of a sample that, as a whole, favours compounds with a hit. Of some 83,000 tested, about 20% had one in any assay. Active and inactive are the calls of the source. How the source made its calls: active means growth percent below 10; inactive means the rest.

Some solved entries appear below for comparison.
O=C(Cn1c(C(=O)c2ccccc2)nc2ccccc21)c1ccc(F)cc1 :: 74.5% (inactive)
C/C=C(\C)C(=O)NC1=CC[C@@]2(C)C(=CCC3C2CC[C@@]2(C)C3CC[C@@H]2C(C)N(C)C)C1=O (stereo not given in full) :: 83% (inactive)

Missing value: growth, SNB-19 CNS, entry S=c1cc(S)c2cc(Br)ccc2[nH]1 . Fill in?
94.1% (inactive)

So what growth did O=C(O)c1ccc2c(c1)C(=O)N(Cc1ccccc1)C2=O get with SNB-19 CNS?
95.1% (inactive)

Give SNB-19 CNS growth for Brc1ccc(Nc2csc(-c3ccccn3)n2)cc1
96% (inactive)

Form: Entry = COc1cc(/C(C)=C(\c2ccc(Cl)cc2)c2ccc(OCCN(C)C)cc2)ccc1F | System = SNB-19 CNS | growth = ____
87.7% (inactive)

Provide the documented growth with SNB-19 CNS as the system for Cn1cc(CC2CC(=O)N(c3ccccc3)C2=O)sc1=NC(=O)c1ccccc1 (stereo not given)
100% (inactive)

###

Test system: K-562 leukemia
Assay: NCI-60 one-dose screen, 48 h (100 = growth as untreated, 0 = no growth, -100 = all killed)
Conditions: 10 µM unless noted
Method: Cells are grown in 96 well plates and exposed to the test compound for 48 hours. Compounds are tested at a single concentration, which is 10^-5 M for most compounds. The reported endpoint is percent growth (GI% or GIPRCNT), where numbers from 0 - 100% represent growth inhibition, and numbers from -100% - 0 represent cell death. For example, a value of 40 represents 60% growth inhibition. A value of 0 means no net growth occurred over the course of the experiment. […]
About 83,000 compounds went through this panel and 20% of them were active in at least one assay; those are over-represented in the sample as a whole.
Below is a list of entries, each paired with its recorded growth value.
The figure you give is taken to be in %; do not add the unit.

COc1cccc(-c2nc3occn3c2-c2ccnc(NCCNS(=O)(=O)c3cccc4ccccc34)n2)c1 :: 95.1
O=C(Nc1cccc(C2=NCCN2)c1)c1ccc(-c2ccc(C(=O)Nc3cccc(C4=NCCN4)c3)cc2)cc1 :: 35.5
O=C(CNCCN1CCOCC1)N1c2cccc3cccc(c23)N(C(=O)CNCCN2CCOCC2)C1c1cn(-c2ccccc2)nc1-c1cccc([N+](=O)[O-])c1 :: -21.4
Cn1ccnc1C(=O)/C=C/c1ccc(CC(=O)Nc2ccc(Cl)cc2)cc1 :: 7.81
N/C(=N\C(N)=N\c1nc2ccccc2s1)c1cccc(Cl)c1 :: 72.8
Cc1ccc(/C=C(/C#N)n2nnc3cccc(F)c32)cc1 :: 6.48

Endpoint output: growth of Cc1ccc(S(=O)(=O)Nn2c3c(cc(-c4nc5ccccc5s4)c2=O)CCCCCC3)cc1 . Value?
98.4

###

test system: DU-145 prostate; assay: NCI-60 one-dose screen, 48 h; conditions: 10 µM unless noted
Compounds without any hit were thinned out: in the full panel of roughly 83,000, 20% have a hit. Activity calls are given as the source filed them. Rule for the calls: active = growth percent below 10; inactive = the rest.
Please answer using one outcome listed in active, inactive

Consider the following illustrative entries.
O=C1Nc2cc(-c3cccc([N+](=O)[O-])c3)ccc2/C1=C/c1ccc[nH]1 :: inactive
O=S(=O)(NCCNc1nccc(-c2c(-c3cccc(O)c3)nc3occn23)n1)c1ccccc1 :: inactive
Cc1ccc(C(=O)/C(=C\c2ccc([N+](=O)[O-])cc2)S(=O)Cc2ccc(Cl)cc2)cc1 (stereo unspecified) :: inactive
Cc1ccc(/C=C(/C#N)n2nnc3cccc(F)c32)cc1 :: active
NC1[C@H](c2c[nH]c3ccccc23)c2c([nH]c3ccccc23)[C@H]1c1c[nH]c2ccccc12 (stereo partly specified) :: inactive
CCCCCCCCOc1ccc(/C=N/Nc2cc(C)nc3ccc(Br)cc23)cc1 :: inactive
NS(=O)(=O)c1ccc(CCn2c(SCC(=O)c3ccc(Cl)cc3)nc3ccccc3c2=O)cc1 :: inactive
COc1cccc(-c2cc(C(=O)Nc3ccc(/C=C/c4ccc(OC5CCN(C)CC5)cc4)cc3)ccc2OC)c1 :: active

Which outcome did this test record for the compound O=C(Nc1cccc(C2=NCCN2)c1)c1ccc(-c2ccc(C(=O)Nc3cccc(C4=NCCN4)c3)cc2)cc1 ?
inactive

// param item: COc1cc2cc(Oc3cccc(NC(=O)Nc4cc(C(F)(F)F)cc(C(F)(F)F)c4)c3)c(C)nc2cc1OC ; yields the recorded call
inactive

Fill in: this test's call for CCCCC[n+]1ccc(SCC(=O)N(C)c2ccc(Oc3ccccc3)cc2)c2ccccc21 is ___
inactive

Recorded test outcome, item O=S(=O)(NCCNc1nccc(-c2c(-c3cccc(F)c3)nc3sccn23)n1)c1ccc(Cl)cc1
inactive

What did the test return for O=C(CSc1nc2sc3c(c2c(=O)n1-c1ccc(Cl)cc1)CCCC3)Nc1nc(-c2cccc(Br)c2)cs1 ?
inactive

Hi, do you know how C=C(C)[C@@H]1CC[C@]2(C(=O)N3CCN(C)CC3)CC[C@]3(C)[C@H](CC[C@@H]4[C@@]5(C)C/C(=C/c6ccncc6)C(=O)C(C)(C)[C@@H]5CC[C@]43C)[C@@H]12 came out in this test?
inactive

Could you check what this test reported for CCc1c(Cl)nc(N)nc1Nc1ccc(C)c(C)c1 ?
inactive

So what was the verdict on O=C(O)c1ccc2c(c1)C(=O)N(Cc1ccccc1)C2=O in this test?
inactive

Per the records of this test, what outcome belongs to COc1cc(CC(=O)c2ccc(O)c(OC)c2)ccc1O ?
inactive

Name the outcome recorded for O=C(CCN1CCCC1)Nc1ccc2c(NCCCc3ccccc3)c3ccccc3nc2c1 in the assay.
active

Please share the test call associated with CCOC(=O)c1cc(C#N)n2ccc3ccccc3c12 .
inactive

Field: outcome | Entry: COc1cc(/C=C2\COc3ccc(-c4ccccc4)cc3C2=O)cc(OC)c1
inactive

###

tested on: SF-539 CNS; assay: NCI-60 one-dose screen, 48 h; conditions: 10 µM unless noted
This is part of a sample that, as a whole, favours compounds with a hit. Of some 83,000 tested, about 20% had one in any assay. Calls of active or inactive are those of the source. The calls were made as follows: active = growth percent below 10; inactive = the rest.
Assign a class; possible classes are Yes for active, No for inactive

I would be grateful if you could indicate the recorded call for COc1cc(/C=N/NC(=O)c2cnn3c2NC(c2ccccc2)C3)ccc1Oc1ccccc1 (stereo not drawn) .
Yes

What was the test verdict on C=C1C(=O)O[C@H]2[C@H]1CC/C(CNC(=O)/C=C/c1cccc(OC)c1)=C\CC[C@@]1(C)O[C@@H]21 ?
Yes

State the result this test recorded for C=C1C(=O)O[C@H]2[C@H]1CC/C(COC(=O)NCC(C)c1ccc(CC(C)C)cc1)=C\CC[C@@]1(C)O[C@@H]21 (stereo partly drawn) .
Yes

Write down the call the test reported for this compound. Item: CNC(=O)c1cncc(Cn2nc(C)c(NC(=O)c3ccc(COc4ccc(C(F)(F)F)cc4C)cc3)c2C)c1
No

Test call, this compound: Cc1cnc(C(=O)Nc2nc3ccc(S(=O)(=O)Nc4ccc(C5(C(F)(F)F)CC5)cc4)cc3[nH]2)cn1
Yes
